tgt: Cytochrome P450 3A4 (Homo sapiens, UniProt P08684)
Sequence (P08684 whole entry): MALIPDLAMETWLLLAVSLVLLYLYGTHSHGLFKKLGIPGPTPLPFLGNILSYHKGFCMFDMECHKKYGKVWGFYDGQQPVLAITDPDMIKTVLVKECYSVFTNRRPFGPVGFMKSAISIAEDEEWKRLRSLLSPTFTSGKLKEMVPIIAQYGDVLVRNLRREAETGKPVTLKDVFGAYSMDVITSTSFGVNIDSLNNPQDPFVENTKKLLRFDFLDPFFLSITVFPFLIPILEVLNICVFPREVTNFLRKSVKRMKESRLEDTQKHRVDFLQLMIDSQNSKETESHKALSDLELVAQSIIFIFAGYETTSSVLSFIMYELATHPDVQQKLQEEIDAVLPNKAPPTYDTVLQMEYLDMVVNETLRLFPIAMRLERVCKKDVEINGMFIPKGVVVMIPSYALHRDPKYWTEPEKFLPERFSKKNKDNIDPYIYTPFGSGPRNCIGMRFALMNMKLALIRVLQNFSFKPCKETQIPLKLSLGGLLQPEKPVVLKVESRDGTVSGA
protocol text: Inhibition of human recombinant CYP3A4 expressed in baculo-virus infected insect microsomes using 7-benzyloxy-4-trifluoromethylcoumarin as substrate after 20 mins by fluorescence detection assay
Assay type: ADME, Microsome
assay readout: IC50 (nM)
Reply numerically in nM, unit not repeated.

Documented IC50 of "O=C(N[C@H](Cc1csc2ccccc12)C(=O)N1CCC(N2CCCCC2)CC1)N1CCC(n2c(=O)[nH]c3ccccc32)CC1" : 870

----------
tgt: Cytochrome P450 3A4 (Homo sapiens)
protocol text: Inhibition of human recombinant CYP3A4 expressed in baculo-virus infected insect microsomes using benzyloxyresorufin as substrate after 45 mins by fluorescence detection assay
Assay type: ADME, Microsome
This section presents compounds with their documented IC50 values.
Unit µM implied. Number only.

Guide cases for IC50, answers given:
• Cn1cc(C[C@@H](NC(=O)N2CCC(n3c(=O)[nH]c4ccccc43)CC2)C(=O)N2CCC(N3CCCCC3)CC2)c2ccccc21 = 0.1
• O=C(N[C@H](Cc1ccc(-c2ccccc2)cc1)C(=O)N1CCC(N2CCCCC2)CC1)N1CCC(n2c(=O)[nH]c3ccccc32)CC1 = 1.3
• O=C1Cc2cc(C[C@@H](NC(=O)N3CCC(N4Cc5ccccc5NC4=O)CC3)C(=O)N3CCC(N4CCCCC4)CC3)ccc2N1 = 11
• O=C(NC(Cc1ccc2[nH]ccc2c1)C(=O)N1CCC(N2CCCCC2)CC1)N1CCC(n2c(=O)[nH]c3ccccc32)CC1 (racemic) = 2.5
• O=C(N[C@@H](Cc1ccc2[nH]ncc2c1)C(=O)N1CCC(N2CCCCC2)CC1)N1CCC(N2Cc3ccccc3NC2=O)CC1 = 7.3
• CC(C)C[C@@H](NC(=O)N1CCC(n2c(=O)[nH]c3ccccc32)CC1)C(=O)N1CCC(N2CCCCC2)CC1 = 16
• O=C(NC(Cc1ccc2[nH]ncc2c1)C(=O)N1CCC(N2CCCCC2)CC1)N1CCC(n2c(=O)[nH]c3ccccc32)CC1 (racemic) = 17
• O=C(N[C@H](Cc1ccc2ccccc2c1)C(=O)N1CCC(N2CCCCC2)CC1)N1CCC(n2c(=O)[nH]c3ccccc32)CC1 = 0.03
• O=C(N[C@H](Cc1csc2ccccc12)C(=O)N1CCC(N2CCCCC2)CC1)N1CCC(n2c(=O)[nH]c3ccccc32)CC1 = 0.084
• O=C(N[C@H](Cc1cccc2ccccc12)C(=O)N1CCC(N2CCCCC2)CC1)N1CCC(n2c(=O)[nH]c3ccccc32)CC1 = 0.03

Lab note: measured IC50 of "O=C(N[C@H](Cc1cc(Br)c(O)c(Br)c1)C(=O)N1CCC(N2CCCCC2)CC1)N1CCC(n2c(=O)[nH]c3ccccc32)CC1" was 2.4

Form field IC50, entry "O=C(N[C@H](Cc1ccc2[nH]c(=O)oc2c1)C(=O)N1CCC(N2CCCCC2)CC1)N1CCC(N2Cc3ccccc3NC2=O)CC1" : 30

# IC50 of "O=C(N[C@H](Cc1ccc2nn[nH]c2c1)C(=O)N1CCC(N2CCCCC2)CC1)N1CCC(N2Cc3ccccc3NC2=O)CC1" = 23

----------
# pKi per entry
tgt: Calcitonin gene-related peptide type 1 receptor (Homo sapiens, UniProt O60894+Q16602)
Sequence (Q16602 whole entry, one chain of several): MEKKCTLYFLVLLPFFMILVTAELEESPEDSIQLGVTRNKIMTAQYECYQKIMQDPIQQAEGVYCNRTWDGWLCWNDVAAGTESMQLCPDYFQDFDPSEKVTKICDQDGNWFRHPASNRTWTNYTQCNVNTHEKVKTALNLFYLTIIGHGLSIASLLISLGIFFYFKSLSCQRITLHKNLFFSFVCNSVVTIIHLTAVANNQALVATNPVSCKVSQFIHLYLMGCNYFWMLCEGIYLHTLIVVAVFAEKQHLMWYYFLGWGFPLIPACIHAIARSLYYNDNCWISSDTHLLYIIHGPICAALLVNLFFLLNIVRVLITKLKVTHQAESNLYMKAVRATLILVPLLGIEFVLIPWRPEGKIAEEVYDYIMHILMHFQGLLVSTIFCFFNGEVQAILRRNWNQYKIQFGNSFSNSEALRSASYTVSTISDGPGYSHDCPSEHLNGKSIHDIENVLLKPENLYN
protocol text: Displacement of [125I]CGRP from CGRP receptor in human SK-N-MC cell membrane after 2 hrs
Give only the number. pKi is defined as minus log10 of concentration in molar units.

• O=C(N[C@H](Cc1c[nH]c2ccccc12)C(=O)N1CCC(N2CCCCC2)CC1)N1CCC(n2c(=O)[nH]c3ccccc32)CC1 = 7.08
• O=C(N[C@H](Cc1ccc2nn[nH]c2c1)C(=O)N1CCC(N2CCCCC2)CC1)N1CCC(N2Cc3ccccc3NC2=O)CC1 = 9.26

Known value: Calcitonin gene-related peptide type 1 receptor (Homo sapiens, UniProt O60894+Q16602) pKi of the compound "O=C(N[C@H](CCc1ccc(O)cc1)C(=O)N1CCC(N2CCCCC2)CC1)N1CCC(n2c(=O)[nH]c3ccccc32)CC1" equals 5.68

Field pKi (Calcitonin gene-related peptide type 1 receptor (Homo sapiens, UniProt O60894+Q16602)), entry "O=C(N[C@H](Cc1ccc2ccccc2c1)C(=O)N1CCC(N2CCCCC2)CC1)N1CCC(n2c(=O)[nH]c3ccccc32)CC1" : 6.64

Known value: Calcitonin gene-related peptide type 1 receptor (Homo sapiens, UniProt O60894+Q16602) pKi of the compound "COc1ccc(C[C@@H](NC(=O)N2CCC(n3c(=O)[nH]c4ccccc43)CC2)C(=O)N2CCC(N3CCCCC3)CC2)cc1" equals 5.85

Case "O=C(N[C@H](Cc1csc2ccccc12)C(=O)N1CCC(N2CCCCC2)CC1)N1CCC(n2c(=O)[nH]c3ccccc32)CC1" , Calcitonin gene-related peptide type 1 receptor (Homo sapiens, UniProt O60894+Q16602), pKi recorded as 9.26

Record for "O=C(N[C@H](Cc1ccc(-c2ccccc2)cc1)C(=O)N1CCC(N2CCCCC2)CC1)N1CCC(n2c(=O)[nH]c3ccccc32)CC1" under target or system Calcitonin gene-related peptide type 1 receptor (Homo sapiens, UniProt O60894+Q16602): pKi reported as 6.60

Let me check: "O=C(N[C@H](Cc1ccc2[nH]c(=O)oc2c1)C(=O)N1CCC(N2CCCCC2)CC1)N1CCC(N2Cc3ccccc3NC2=O)CC1" , system Calcitonin gene-related peptide type 1 receptor (Homo sapiens, UniProt O60894+Q16602), measured pKi is 9.57

Entry "O=C(N[C@H](Cc1ccc(O)cc1)C(=O)N1CCC(N2CCCCC2)CC1)N1CCC(n2c(=O)[nH]c3ccccc32)CC1" : pKi on Calcitonin gene-related peptide type 1 receptor (Homo sapiens, UniProt O60894+Q16602) = 8.60

For "Cn1cc(C[C@@H](NC(=O)N2CCC(n3c(=O)[nH]c4ccccc43)CC2)C(=O)N2CCC(N3CCCCC3)CC2)c2ccccc21" on Calcitonin gene-related peptide type 1 receptor (Homo sapiens, UniProt O60894+Q16602), measured pKi was 7.80

Form field, pKi with Calcitonin gene-related peptide type 1 receptor (Homo sapiens, UniProt O60894+Q16602), item "Cc1nc2cc(C[C@@H](NC(=O)N3CCC(N4Cc5ccccc5NC4=O)CC3)C(=O)N3CCC(N4CCCCC4)CC3)ccc2[nH]1" : 7.55

Measured on Calcitonin gene-related peptide type 1 receptor (Homo sapiens, UniProt O60894+Q16602), "CC(=O)Nc1ccc(C[C@@H](NC(=O)N2CCC(n3c(=O)[nH]c4ccccc43)CC2)C(=O)N2CCC(N3CCCCC3)CC2)cc1" has a documented pKi of 5.72
